Record form. Attribute: pKi. Fill in for each entry.
Biological target: UniProt:P48443
Sequence (P48443 whole entry): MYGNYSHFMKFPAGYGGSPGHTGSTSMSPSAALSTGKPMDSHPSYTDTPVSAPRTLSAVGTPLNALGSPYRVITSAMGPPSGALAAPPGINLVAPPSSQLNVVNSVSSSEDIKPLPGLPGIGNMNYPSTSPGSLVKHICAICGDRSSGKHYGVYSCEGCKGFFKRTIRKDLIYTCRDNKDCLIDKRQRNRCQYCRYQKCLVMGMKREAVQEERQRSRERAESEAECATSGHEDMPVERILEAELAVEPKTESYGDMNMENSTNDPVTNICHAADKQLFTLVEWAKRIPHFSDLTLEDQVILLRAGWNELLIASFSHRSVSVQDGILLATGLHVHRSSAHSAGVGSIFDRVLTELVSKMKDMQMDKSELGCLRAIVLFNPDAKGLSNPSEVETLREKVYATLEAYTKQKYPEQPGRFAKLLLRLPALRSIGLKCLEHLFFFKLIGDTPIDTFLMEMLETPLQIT
Assay: Binding affinity against RXR gamma receptor using [3H]9-cis-RA as radioligand in CV-1 cells
One number for each entry, as −log10 of the molar value.

structure_smiles=CC(/C=C/C(F)=C(/C)c1cc(C(C)(C)C)cc(C(C)(C)C)c1OCC(F)F)=C\C(=O)O meas_value=7.88

List the reported pKi of each molecule below.
1. CCOc1c(\C(C)=C/C=C/C(C)=C/C(=O)O)cc(C(F)(F)C(F)(F)F)cc1C(C)C
2. C/C(=C/C=C/C(C)=C/C(=O)O)c1cc(C(C)(C)C)cc(C(C)(C)C)c1OCC(F)F
3. CCCOc1c(\C(C)=C/C=C/C(C)=C/C(=O)O)cc(C(C)C)cc1C(F)(F)C(F)(F)F
4. CCCCOc1c(\C(C)=C(F)/C=C/C(C)=C/C(=O)O)cc(C(C)C)cc1C(C)C
5. C/C(=C/C=C/C(C)=C/C(=O)O)c1cc(-c2ccccc2F)cc(C(C)C)c1OCC(F)F
6. CCCOc1c(\C(C)=C/C=C/C(C)=C/C(=O)O)cc(C(F)(F)C(F)(F)F)cc1C(C)C

A)
8.11
7.08
7.63
7.56
7.96
7.56

* * *

Target: Retinoic acid receptor RXR-beta (Homo sapiens, UniProt P28702)
Sequence (P28702 whole entry): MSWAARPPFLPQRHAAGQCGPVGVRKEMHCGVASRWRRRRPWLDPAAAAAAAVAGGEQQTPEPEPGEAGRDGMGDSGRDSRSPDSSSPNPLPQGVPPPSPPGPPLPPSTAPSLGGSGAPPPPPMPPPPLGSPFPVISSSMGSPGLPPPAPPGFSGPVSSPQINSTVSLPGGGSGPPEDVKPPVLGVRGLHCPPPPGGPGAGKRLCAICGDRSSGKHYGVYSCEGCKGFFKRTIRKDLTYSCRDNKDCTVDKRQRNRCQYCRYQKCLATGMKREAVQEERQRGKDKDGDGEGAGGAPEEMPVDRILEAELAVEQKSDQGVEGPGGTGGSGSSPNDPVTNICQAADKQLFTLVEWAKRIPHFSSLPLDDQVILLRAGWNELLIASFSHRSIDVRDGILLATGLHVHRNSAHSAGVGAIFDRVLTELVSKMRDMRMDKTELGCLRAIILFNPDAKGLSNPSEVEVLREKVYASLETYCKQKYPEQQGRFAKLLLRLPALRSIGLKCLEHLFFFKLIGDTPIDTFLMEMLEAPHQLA
Assay: Displacement of [3H]9-cis-RA from RXR beta receptor in CV-1 cells
assay endpoint: pKi
One number for each entry, as −log10 of the molar value.

Please review the following examples before continuing.
structure_smiles=C/C(=C/C=C/C(C)=C/C(=O)O)c1cc(-c2cc(F)cc(F)c2)cc(C(C)C)c1OCC(F)F meas_value=8.62
structure_smiles=CC(/C=C/C(F)=C(/C)c1cc(C(C)(C)C)cc(C(C)(C)C)c1OCC(F)(F)F)=C\C(=O)O meas_value=7.81
structure_smiles=CCCOc1c(\C(C)=C/C=C/C(C)=C/C(=O)O)cc(C(F)(F)C(F)(F)F)cc1C(C)C meas_value=7.76
structure_smiles=CCCCOc1c(\C(C)=C(F)/C=C/C(C)=C/C(=O)O)cc(C(C)C)cc1C(C)C meas_value=7.61
structure_smiles=C/C(=C/C=C/C(C)=C/C(=O)O)c1cc(C(C)C)cc(-c2ccccc2)c1OCC(F)F meas_value=7.91

Below is a list of molecules. For each, state its recorded pKi.
1. CCCCOc1c(\C(C)=C/C=C/C(C)=C/C(=O)O)cc(C(F)(F)C(F)(F)F)cc1C(C)C
2. CCC(C)(C)c1cc(\C(C)=C(F)/C=C/C(C)=C/C(=O)O)c(OCC(F)F)c(C(C)(C)CC)c1
3. Cc1cc2c(cc1C1(c3ccc(C(=O)O)cn3)CC1)C(C)(C)CCC2(C)C
4. C/C(=C/C=C/C(C)=C/C(=O)O)c1cc(-c2cccc(F)c2)cc(C(C)C)c1OCC(F)F
5. C/C(=C/C=C/C(C)=C/C(=O)O)c1cc(-c2ccc(F)cc2)cc(C(C)C)c1OCC(F)F
6. C/C(=C/C=C/C(C)=C/C(=O)O)c1cc(C(C)(C)C)cc(C(C)(C)C)c1OCC(F)F

A)
[8.09, 8.28, 7.12, 8.13, 8.41, 8.40]

* * *

Target: Retinoic acid receptor gamma (Homo sapiens, UniProt P13631)
Experiment: Binding affinity against RAR gamma receptor using [3H]ATRA as radioligand in CV-1 cells
Type: cell-based, Cercopithecidae
assay endpoint: Ki

structure_smiles=CC(/C=C/C(F)=C(/C)c1cc(C(C)(C)C)cc(C(C)(C)C)c1OCC(F)(F)F)=C\C(=O)O target_desc="Retinoic acid receptor gamma (Homo sapiens, UniProt P13631)" assay_endpoint=Ki meas_value="> 10 µM"

# return Ki for each item in the list
1. C/C(=C/C=C/C(C)=C/C(=O)O)c1cc(-c2ccc(F)cc2)cc(C(C)C)c1OCC(F)F
2. C/C(=C/C=C/C(C)=C/C(=O)O)c1cc(C(C)C)cc(-c2ccccc2)c1OCC(F)F
3. CCCCOc1c(\C(C)=C(F)/C=C/C(C)=C/C(=O)O)cc(C(C)C)cc1C(C)C
4. CCC(C)(C)c1cc(\C(C)=C(F)/C=C/C(C)=C/C(=O)O)c(OCC(F)F)c(C(C)(C)CC)c1
5. CCCOc1c(\C(C)=C/C=C/C(C)=C/C(=O)O)cc(C(F)(F)C(F)(F)F)cc1C(C)C

A)
> 10 µM
> 10 µM
> 10 µM
> 10 µM
> 1 µM

* * *

System: Peroxisome proliferator-activated receptor gamma (Homo sapiens, UniProt P37231) | Read-out: pEC50
Sequence (P37231 whole entry): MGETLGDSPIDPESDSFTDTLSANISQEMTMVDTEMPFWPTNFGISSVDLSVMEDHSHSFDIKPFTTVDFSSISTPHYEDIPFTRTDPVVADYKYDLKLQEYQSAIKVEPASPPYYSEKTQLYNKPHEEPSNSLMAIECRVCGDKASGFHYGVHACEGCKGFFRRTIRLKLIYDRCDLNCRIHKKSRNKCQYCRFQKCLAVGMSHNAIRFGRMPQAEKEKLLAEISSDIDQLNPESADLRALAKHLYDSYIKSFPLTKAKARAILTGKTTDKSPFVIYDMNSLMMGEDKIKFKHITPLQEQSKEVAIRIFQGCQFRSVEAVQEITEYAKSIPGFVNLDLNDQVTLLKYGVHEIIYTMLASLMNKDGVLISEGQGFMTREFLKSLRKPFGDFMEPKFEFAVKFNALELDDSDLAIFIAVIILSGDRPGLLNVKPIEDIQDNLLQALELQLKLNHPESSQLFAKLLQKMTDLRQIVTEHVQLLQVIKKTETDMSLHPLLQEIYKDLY
Numbers only, as −log10 of the molar value.

Known results for compounds:
structure_smiles=C/C(=C/C=C/C(C)=C/C(=O)O)c1cc(C(C)C)cc(-c2ccccc2)c1OCC(F)F assay_endpoint=pEC50 meas_value=7.11
structure_smiles=C/C(=C/C=C/C(C)=C/C(=O)O)c1cc(-c2cccc(F)c2)cc(C(C)C)c1OCC(F)F assay_endpoint=pEC50 meas_value=7.44
structure_smiles=C/C(=C/C=C/C(C)=C/C(=O)O)c1cc(-c2cccs2)cc(C(C)C)c1OCC(F)F assay_endpoint=pEC50 meas_value=7.82
structure_smiles=C/C(=C/C=C/C(C)=C/C(=O)O)c1cc(-c2ccc(F)cc2)cc(C(C)C)c1OCC(F)F assay_endpoint=pEC50 meas_value=7.49
structure_smiles=CC(/C=C/C(F)=C(/C)c1cc(C(C)(C)C)cc(C(C)(C)C)c1OCC(F)(F)F)=C\C(=O)O assay_endpoint=pEC50 meas_value=7.52

Below are some compounds; for each one, tell me its pEC50.
1. CCCCOc1c(\C(C)=C/C=C/C(C)=C/C(=O)O)cc(C(F)(F)C(F)(F)F)cc1C(C)C
2. CC(/C=C/C(F)=C(/C)c1cc(C(C)(C)C)cc(C(C)(C)C)c1OCC(F)F)=C\C(=O)O
3. C/C(=C/C=C/C(C)=C/C(=O)O)c1cc(-c2cc(F)cc(F)c2)cc(C(C)C)c1OCC(F)F
4. CCCOc1c(\C(C)=C/C=C/C(C)=C/C(=O)O)cc(C(C)C)cc1C(F)(F)C(F)(F)F

A)
7.15
7.20
7.40
7.54

* * *

Give measured AUC(0-t) at 8 h for each item. Keep answers brief.
Experiment: Area under curve at 0-8 hr in IRC mice after peroral administration
Format: ADME, organism-based
Set-up: time < 8 hr, route oral
Settings: mouse, in vivo, po
Answers are plain numbers, in ng·h/mL.

structure_smiles=CCOc1c(\C(C)=C/C=C/C(C)=C/C(=O)O)cc(C(F)(F)C(F)(F)F)cc1C(C)C unit_string=ng·h/mL meas_value=14400
structure_smiles=C/C(=C/C=C/C(C)=C/C(=O)O)c1cc(-c2ccccc2F)cc(C(C)C)c1OCC(F)F unit_string=ng·h/mL meas_value=15200
structure_smiles=C/C(=C/C=C/C(C)=C/C(=O)O)c1cc(C(C)(C)C)cc(C(C)(C)C)c1OCC(F)F unit_string=ng·h/mL meas_value=3800

// recorded AUC(0-t) at 8 h for `CC(/C=C/C(F)=C(/C)c1cc(C(C)(C)C)cc(C(C)(C)C)c1OCC(F)F)=C\C(=O)O` : 17700

* * *

Biological target: Retinoic acid receptor gamma (Homo sapiens, UniProt P13631)
Sequence (P13631 whole entry): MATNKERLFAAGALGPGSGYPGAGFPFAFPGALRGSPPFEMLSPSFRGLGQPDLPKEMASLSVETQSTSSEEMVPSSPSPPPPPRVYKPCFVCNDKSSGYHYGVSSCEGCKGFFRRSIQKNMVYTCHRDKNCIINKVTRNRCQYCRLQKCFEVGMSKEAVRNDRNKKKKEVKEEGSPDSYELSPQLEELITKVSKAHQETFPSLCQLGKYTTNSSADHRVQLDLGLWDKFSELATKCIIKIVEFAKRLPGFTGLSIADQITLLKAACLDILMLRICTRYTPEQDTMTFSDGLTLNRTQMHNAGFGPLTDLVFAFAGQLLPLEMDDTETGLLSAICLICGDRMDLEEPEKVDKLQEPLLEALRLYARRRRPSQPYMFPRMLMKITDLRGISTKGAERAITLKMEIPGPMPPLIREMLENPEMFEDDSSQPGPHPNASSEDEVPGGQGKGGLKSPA
Assay: Displacement of [3H]ATRA from RAR gamma receptor expressed in CV-1 cells
Format: cell-based, Cercopithecidae
assay endpoint: Ki

Entry `CCCOc1c(\C(C)=C/C=C/C(C)=C/C(=O)O)cc(C(C)C)cc1C(F)(F)C(F)(F)F` ; Ki = > 10 µM

* * *

Target: Retinoic acid receptor alpha (Homo sapiens)
Sequence (whole entry): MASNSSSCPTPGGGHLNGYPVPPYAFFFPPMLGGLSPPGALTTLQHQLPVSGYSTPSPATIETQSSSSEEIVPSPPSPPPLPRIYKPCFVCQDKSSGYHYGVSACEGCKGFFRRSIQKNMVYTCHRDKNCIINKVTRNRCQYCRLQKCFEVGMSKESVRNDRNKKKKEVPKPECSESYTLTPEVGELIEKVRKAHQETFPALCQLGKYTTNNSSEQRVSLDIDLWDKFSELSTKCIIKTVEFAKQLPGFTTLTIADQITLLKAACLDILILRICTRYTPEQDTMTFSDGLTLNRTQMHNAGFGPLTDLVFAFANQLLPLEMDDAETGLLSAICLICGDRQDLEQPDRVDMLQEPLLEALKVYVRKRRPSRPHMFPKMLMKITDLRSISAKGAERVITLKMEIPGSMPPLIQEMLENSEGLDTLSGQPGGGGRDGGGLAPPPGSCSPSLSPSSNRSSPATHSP
Experiment: Agonist synergy against RAR alpha was tested along with 3 nM TTNPB
Type: functional
Details: Cercopithecidae
I'd be grateful if you could share measured Synergy for these entries.
Answer format: value, then unit.

Answered examples (5):
structure_smiles=CCC(C)(C)c1cc(\C(C)=C(F)/C=C/C(C)=C/C(=O)O)c(OCC(F)F)c(C(C)(C)CC)c1 target_desc="Retinoic acid receptor alpha (Homo sapiens)" assay_endpoint=Synergy meas_value="1.5 nM"
structure_smiles=CCOc1c(\C(C)=C/C=C/C(C)=C/C(=O)O)cc(C(F)(F)C(F)(F)F)cc1C(C)C target_desc="Retinoic acid receptor alpha (Homo sapiens)" assay_endpoint=Synergy meas_value="2.8 nM"
structure_smiles=Cc1cc2c(cc1C1(c3ccc(C(=O)O)cn3)CC1)C(C)(C)CCC2(C)C target_desc="Retinoic acid receptor alpha (Homo sapiens)" assay_endpoint=Synergy meas_value="6.9 nM"
structure_smiles=CC(/C=C/C(F)=C(/C)c1cc(C(C)(C)C)cc(C(C)(C)C)c1OCC(F)(F)F)=C\C(=O)O target_desc="Retinoic acid receptor alpha (Homo sapiens)" assay_endpoint=Synergy meas_value="1.5 nM"
structure_smiles=C/C(=C/C=C/C(C)=C/C(=O)O)c1cc(-c2cccc(F)c2)cc(C(C)C)c1OCC(F)F target_desc="Retinoic acid receptor alpha (Homo sapiens)" assay_endpoint=Synergy meas_value="1.6 nM"

Would you be so kind as to report Synergy for each listed record?
1. C/C(=C/C=C/C(C)=C/C(=O)O)c1cc(-c2cccs2)cc(C(C)C)c1OCC(F)F
2. CC(/C=C/[C@@H]1C[C@]1(C)c1ccc2c(c1)C(C)(C)CCC2(C)C)=C\C(=O)O
3. CCCOc1c(\C(C)=C/C=C/C(C)=C/C(=O)O)cc(C(C)C)cc1C(F)(F)C(F)(F)F
4. C/C(=C/C=C/C(C)=C/C(=O)O)c1cc(C(C)C)cc(-c2ccccc2)c1OCC(F)F
5. CCCCOc1c(\C(C)=C/C=C/C(C)=C/C(=O)O)cc(C(F)(F)C(F)(F)F)cc1C(C)C
6. C/C(=C/C=C/C(C)=C/C(=O)O)c1cc(-c2cc(F)cc(F)c2)cc(C(C)C)c1OCC(F)F
7. CCCCOc1c(\C(C)=C(F)/C=C/C(C)=C/C(=O)O)cc(C(C)C)cc1C(C)C
8. CC(/C=C/C(F)=C(/C)c1cc(C(C)(C)C)cc(C(C)(C)C)c1OCC(F)F)=C\C(=O)O

A)
1.4 nM
1.9 nM
9.4 nM
1 nM
1.2 nM
0.8 nM
1.5 nM
1.8 nM

// each molecule listed below needs its Synergy
1. C/C(=C/C=C/C(C)=C/C(=O)O)c1cc(-c2ccccc2F)cc(C(C)C)c1OCC(F)F
2. CCCOc1c(\C(C)=C/C=C/C(C)=C/C(=O)O)cc(C(F)(F)C(F)(F)F)cc1C(C)C
3. C/C(=C/C=C/C(C)=C/C(=O)O)c1cc(-c2ccco2)cc(C(C)C)c1OCC(F)F
4. C/C(=C/C=C/C(C)=C/C(=O)O)c1cc(-c2ccc(F)cc2)cc(C(C)C)c1OCC(F)F

A)
1: 1.5 nM; 2: 1.4 nM; 3: 1.2 nM; 4: 1.1 nM
